# targetOrTestSystem: human opioid receptor κ (Homo sapiens)
# Sequence (P41145 whole entry): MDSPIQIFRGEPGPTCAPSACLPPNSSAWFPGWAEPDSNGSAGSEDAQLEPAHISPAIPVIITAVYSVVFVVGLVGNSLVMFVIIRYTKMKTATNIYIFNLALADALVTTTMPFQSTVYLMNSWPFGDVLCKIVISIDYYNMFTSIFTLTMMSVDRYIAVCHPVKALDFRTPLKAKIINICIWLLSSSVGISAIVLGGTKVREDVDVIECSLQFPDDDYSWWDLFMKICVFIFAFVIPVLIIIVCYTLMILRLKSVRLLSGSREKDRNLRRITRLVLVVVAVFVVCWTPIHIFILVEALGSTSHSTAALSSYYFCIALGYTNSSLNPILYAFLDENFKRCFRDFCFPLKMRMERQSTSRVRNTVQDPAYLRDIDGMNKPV
# experimentSummary: Opioid receptor function test (Lance Ultra cAMP Kit), κ receptor
# experimentalContext: agonistic activity, human κ receptor-expressing CHO cells, cAMP, forskolin
observedProperty: EC50

Worked cases, EC50 given:
O=C(c1ccccc1)N1C[C@H]2CC34CCC1C2C31CCN(CC2CNC2)C4Cc2ccc(O)cc21 (some centres unmarked) ... > 100 nM
CN1CCC[C@H]1CN1CCC23c4cc(O)ccc4CC1C21CCC2C3[C@@H](CN2C(=O)c2ccccc2)C1 (some centres unmarked) ... > 10 nM
NCCN1CC[C@@]23c4cc(O)ccc4C[C@@H]1[C@]21CC[C@@H]2[C@H]3[C@@H](CN2C(=O)c2ccccc2)C1 ... > 100 nM
Cc1cc(C)nc(N2C[C@H]3C[C@@]45CC[C@@H]2[C@@H]3[C@@]42CCN(CCN(C)C)[C@@H]5Cc3ccc(O)cc32)n1 ... > 100 nM

Please find the next compound below.
Write down the reported EC50 of CN(C)CCN1CCC23c4cc(O)ccc4CC1C21CCC2C3[C@@H](CN2C(=O)c2ccccc2)C1 (some centres unmarked) , test system: human opioid receptor κ (Homo sapiens). > 10 nM

###

# targetOrTestSystem: human opioid receptor μ (Homo sapiens)
# experimentSummary: Opioid receptor function test (Lance Ultra cAMP Kit), μ receptor
# experimentalContext: agonistic activity, human μ receptor-expressing CHO cells, cAMP, forskolin
observedProperty: EC50

Take a look at these entries with their results.
NCCCN1CCC23c4cc(O)ccc4CC1C21CCC2C3[C@@H](CN2C(=O)c2cccc3ccccc23)C1 (stereo partly drawn) ... > 0.01 µM
CN1CCC[C@H]1CN1CCC23c4cc(O)ccc4CC1C21CCC2C3[C@@H](CN2C(=O)c2ccccc2)C1 (stereo partly drawn) ... > 0.1 µM

Please examine the following record next.
Bench note: what EC50 did NCCN1CC[C@@]23c4cc(O)ccc4C[C@@H]1[C@]21CC[C@@H]2[C@H]3[C@@H](CN2C(=O)c2ccccc2)C1 show? > 0.1 µM

###

# targetOrTestSystem: human opioid receptor μ (Homo sapiens, UniProt P35372)
# Construct: host or cells: CHO cells
# Sequence (P35372 whole entry): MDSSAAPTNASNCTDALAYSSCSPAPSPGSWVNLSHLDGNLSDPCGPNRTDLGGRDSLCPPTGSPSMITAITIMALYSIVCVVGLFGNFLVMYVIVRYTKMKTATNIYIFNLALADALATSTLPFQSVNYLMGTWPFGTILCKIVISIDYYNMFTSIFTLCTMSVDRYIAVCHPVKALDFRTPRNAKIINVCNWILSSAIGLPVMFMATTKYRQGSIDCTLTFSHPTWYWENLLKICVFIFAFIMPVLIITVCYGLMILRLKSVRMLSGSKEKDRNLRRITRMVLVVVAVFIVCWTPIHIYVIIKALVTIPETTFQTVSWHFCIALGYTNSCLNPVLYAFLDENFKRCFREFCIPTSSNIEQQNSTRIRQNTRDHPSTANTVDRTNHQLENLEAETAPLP
# experimentSummary: Opioid receptor function test (Lance Ultra cAMP Kit), μ receptor
# Type: cell-based
# experimentalContext: maximum reaction relative to DAMGO taken as 100%
Label class 1 when Emax >= 90%; otherwise class 0.

Take a look at these entries with their results.
O=C(c1ccccc1)N1C[C@H]2C[C@@]34CC[C@@H]1[C@@H]2[C@@]31CCN(C[C@@H]2CCCN2)[C@@H]4Cc2ccc(O)cc21 ... class 0
NCCCN1CCC23c4cc(O)ccc4CC1C21CCC2C3[C@@H](CN2C(=O)c2ccccc2)C1 (stereo partly drawn) ... class 1
CN1CCC[C@H]1CN1CCC23c4cc(O)ccc4CC1C21CCC2C3[C@@H](CN2C(=O)c2ccccc2)C1 (stereo partly drawn) ... class 0
Cc1cc(C)nc(N2C[C@H]3C[C@@]45CC[C@@H]2[C@@H]3[C@@]42CCN(CCN(C)C)[C@@H]5Cc3ccc(O)cc32)n1 ... class 1
O=C(c1ccccc1)N1C[C@H]2CC34CCC1C2C31CCN(CC2CNC2)C4Cc2ccc(O)cc21 (stereo partly drawn) ... class 1

Hello, I need to know if NCCN1CC[C@@]23c4cc(O)ccc4C[C@@H]1[C@]21CC[C@@H]2[C@H]3[C@@H](CN2C(=O)c2ccccc2)C1 has measured Emax not below 90%. Thanks! class 0

Does Emax meet or surpass 90% for NCC(O)CN1CC[C@@]23c4cc(O)ccc4C[C@@H]1[C@]21CC[C@@H]2[C@H]3[C@@H](CN2C(=O)c2ccccc2)C1 (single isomer, unassigned) [Compound 62a] ? class 1

Could you verify whether the entry NCCCN1CCC23c4cc(O)ccc4CC1C21CCC2C3[C@@H](CN2C(=O)c2cccc3ccccc23)C1 (stereo partly drawn) shows Emax of no less than 90%? class 0
